Biological target: human eIF2β-NTT (residues 1–191), His6-tagged (human, UniProt P20042 1-191)
Sequence (P20042 1-191): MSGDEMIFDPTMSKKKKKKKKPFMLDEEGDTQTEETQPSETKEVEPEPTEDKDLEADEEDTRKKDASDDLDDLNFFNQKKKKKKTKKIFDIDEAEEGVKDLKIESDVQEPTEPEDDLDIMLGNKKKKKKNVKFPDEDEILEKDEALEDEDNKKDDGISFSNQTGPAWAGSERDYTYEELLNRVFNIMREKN
Test: NMR titration
Overview of recorded Kd for various binders
attribute measured: Kd (µM)

• human eIF2Bε-CTD phosphomimetic mutant (eIF2Bε-CTD-EE) (domain or fragment) GSPQMDDIKVFQNEVLGTLQRGKEENISCDNLVLEINSLKYAYNISLKEVMQVLSHVVLEFPLQQMDSPLDSSRYCALLLPLLKAWSPVFRNYIKRAADHLEALAAIEDFFLEHEALGISMAKVLMAFYQLEILAEETILSWFSQRDTTDKGQQLRKNQQLQRFIQWLKEAEEEEEEDD = 14
• human 5MP1-CTD (domain or fragment, UniProt Q9Y6E2 248-419, looked up) VQQSLGTRKELQKELQERLSQECPIKEVVLYVKEEMKRNDLPETAVIGLLWTCIMNAVEWNKKEELVAEQALKHLKQYAPLLAVFSSQGQSELILLQKVQEYCYDNIHFMKAFQKIVVLFYKADVLSEEAILKWYKEAHVAKGKSVFLDQMKKFVEWLQNAEEESESEGEEN = 63
• human 5MP1-CTD phosphomimetic mutant (5MP1-CTD-EE) (domain or fragment) VQQSLGTRKELQKELQERLSQECPIKEVVLYVKEEMKRNDLPETAVIGLLWTCIMNAVEWNKKEELVAEQALKHLKQYAPLLAVFSSQGQSELILLQKVQEYCYDNIHFMKAFQKIVVLFYKADVLSEEAILKWYKEAHVAKGKSVFLDQMKKFVEWLQNAEEEEEEEGEEN = 45
• human eIF2Bε-CTD (domain or fragment, UniProt Q13144 543-721, looked up) GSPQMDDIKVFQNEVLGTLQRGKEENISCDNLVLEINSLKYAYNISLKEVMQVLSHVVLEFPLQQMDSPLDSSRYCALLLPLLKAWSPVFRNYIKRAADHLEALAAIEDFFLEHEALGISMAKVLMAFYQLEILAEETILSWFSQRDTTDKGQQLRKNQQLQRFIQWLKEAEEESSEDD = 44
